# testDescription: collision cross section of modified peptide (TIMS, N2, iRT-aligned); higher = larger / more extended gas-phase ion
# cond: charge state: 2; modification: HexNAc (ST)
propertyMeasured: collision cross section (Å²)
A number alone suffices; assume Å².

Ask: State the recorded collision cross section for this entry: IVNVSLADLR [_IVNVS(HexNAc (ST))LADLR_]
Result: 388.29

Ask: State the recorded collision cross section for this entry: VPQAQPTKPALK [_VPQAQPT(HexNAc (ST))KPALK_]
Result: 409.35

Ask: State the recorded collision cross section for this entry: FSPPSSSLQPGK [_FSPPSSS(HexNAc (ST))LQPGK_]
Result: 396.47

Ask: State the recorded collision cross section for this entry: SYISSQTNDTHK [_S(HexNAc (ST))YISSQTNDTHK_]
Result: 405.45

---

Would you mind telling me the reported collision cross section of each entry?
# testDescription: collision cross section of modified peptide (TIMS, N2, iRT-aligned); higher = larger / more extended gas-phase ion
# cond: charge state: 3; modification: Hydroxyproline
A number alone suffices; assume Å².

Ask: State the recorded collision cross section for this entry: PPGFSPFRSSR [_PP(Hydroxyproline)GFSPFRSSR_]
Result: 458.87

Ask: State the recorded collision cross section for this entry: GEQGEPGAPGIRTGIQGLK [_GEQGEPGAP(Hydroxyproline)GIRTGIQGLK_]
Result: 502.77

Ask: State the recorded collision cross section for this entry: GQKGEPGLPGHPGK [_GQKGEPGLP(Hydroxyproline)GHPGK_]
Result: 420.23

Ask: State the recorded collision cross section for this entry: GDRGEIGPPGPR [_GDRGEIGPP(Hydroxyproline)GPR_]
Result: 424.63

Ask: State the recorded collision cross section for this entry: IHPEGPPLK [_IHP(Hydroxyproline)EGPPLK_]
Result: 438.36

Ask: State the recorded collision cross section for this entry: GLPGEPGPRGLLGPK [_GLP(Hydroxyproline)GEPGPRGLLGPK_]
Result: 506.02

Ask: State the recorded collision cross section for this entry: VPGALAAAKAAK [_VP(Hydroxyproline)GALAAAKAAK_]
Result: 444.57

Ask: State the recorded collision cross section for this entry: VPGVGLPGVYPGGVLPGAR [_VPGVGLPGVYPGGVLP(Hydroxyproline)GAR_]
Result: 534.68

Ask: State the recorded collision cross section for this entry: LGVPGLPGYPGRQGPK [_LGVPGLP(Hydroxyproline)GYPGRQGPK_]
Result: 499.55

Ask: State the recorded collision cross section for this entry: PGSPGPPGSPGPR [_PGSP(Hydroxyproline)GPPGSPGPR_]
Result: 422.04

Ask: State the recorded collision cross section for this entry: GHPGPPGPPGEQGLPGLAGK [_GHPGPPGPP(Hydroxyproline)GEQGLPGLAGK_]
Result: 495.73

Ask: State the recorded collision cross section for this entry: YTAILNQIPSHSSSIR [_YTAILNQIP(Hydroxyproline)SHSSSIR_]
Result: 518.79

Ask: State the recorded collision cross section for this entry: GFPGAPGLPGLKGHR [_GFP(Hydroxyproline)GAPGLPGLKGHR_]
Result: 478.5

Ask: State the recorded collision cross section for this entry: GEKGDPGLIGPK [_GEKGDP(Hydroxyproline)GLIGPK_]
Result: 437

---

Would you mind telling me the reported collision cross section of each entry?
# testDescription: collision cross section of modified peptide (TIMS, N2, iRT-aligned); higher = larger / more extended gas-phase ion
# cond: charge state: 2; modification: Glutarylation
A number alone suffices; assume Å².

Ask: State the recorded collision cross section for this entry: YEEIVKEVSTYIK [_YEEIVK(Gluratylation)EVSTYIK_]
Result: 443.96

Ask: State the recorded collision cross section for this entry: LDEKENLSAK [_LDEK(Gluratylation)ENLSAK_]
Result: 373.82

Ask: State the recorded collision cross section for this entry: GSLGAQKLANTCFNEIEK [_GSLGAQK(Gluratylation)LANTCFNEIEK_]
Result: 469.86

Ask: State the recorded collision cross section for this entry: SNEEGSEEKGPEVR [_SNEEGSEEK(Gluratylation)GPEVR_]
Result: 407.15

Ask: State the recorded collision cross section for this entry: FLQEFYQDDELGKK [_FLQEFYQDDELGK(Gluratylation)K_]
Result: 453.64

Ask: State the recorded collision cross section for this entry: VNALKNLQVK [_VNALK(Gluratylation)NLQVK_]
Result: 376.79

Ask: State the recorded collision cross section for this entry: SGKFTQQDIDEAK [_SGK(Gluratylation)FTQQDIDEAK_]
Result: 415.95

Ask: State the recorded collision cross section for this entry: LEQVEKELLR [_LEQVEK(Gluratylation)ELLR_]
Result: 392.7

Ask: State the recorded collision cross section for this entry: ISSNFSSIIAEKLR [_ISSNFSSIIAEK(Gluratylation)LR_]
Result: 430.8

Ask: State the recorded collision cross section for this entry: AGPNASIISLKSDK [_AGPNASIISLK(Gluratylation)SDK_]
Result: 416.83

Ask: State the recorded collision cross section for this entry: DFDTALKHYDK [_DFDTALK(Gluratylation)HYDK_]
Result: 406.02

Reference source: the supplement of paper PMC10598134
